# System: MS2 coat protein
# Assay Summary: apparent KD of MS2 coat protein; designed switch direction (-1 OFF switch, 1 ON switch): 1; higher = weaker reporter binding
# Test Settings: Eterna round: R98; input ligand: none
Rule: 1.0 for apparent KD of MS2 coat protein not less than 200 nM, 0.0 for anything less.

>>> class_assignment("UGGACCAAUACAGGAUAUGGUGACGCACAUGAGGAUCACCCAUGUCCGCAGCGUGCUCAGCACGCCCAGAAGGGUAUUGAUUCA [Tereriesti]")
1.0
>>> class_assignment("UUUACAUGAGGAUCACCCAUGUUUAGAAAGUUAAUUAUAAGUGAGGAUAUAUAAUUUAUAAAAUAGUAGAAGGCACUGGGUAUU [JR_SSNG3_Sub079]")
0.0
>>> class_assignment("CCGGAAACGGGUAGCUGUACAUGAGGAUCACCCAUGUGAUCAUAGGAUAUGGUUCCUAAUUGGAACCAGAAGGAUGUCAGCUAC [Mat - Same State NG 3 - JL Mod - D86]")
0.0
>>> class_assignment("CCAGAGAUAUGAGGAUAUCGAGUGGAUAACACUCGAGAAGGCAUGUGAAAACAUGAGGAUCACCCAUGUGAUCAAUACUCUGGA [Same State NG1 - WT Aptamer 2D]")
0.0
>>> class_assignment("GCCAUCGCAUGAGGAUAUGGACAGCUUUGCUGUCCAGAAGGCAUGUCAUAAGACAUGAGGAUCACCCAUGUAGUUAAGAUGGCA [Mat - Same State NG 1 - JL Mod - D15]")
1.0
